Give measured Relative activity (%) for each item. Keep answers brief.
Test system: YH-15 phytase
Assay: Enzyme activity of phytase according to metal ions and inhibitors
Format: biochemical, Citrobacter braakii YH-15
Details: metal ion or inhibitor 6 mM

Look over these answered cases.
| STRUCTURE | Relative activity (%) |
| --- | --- |
| [Cl][Cd][Cl] | 101% |
| [Cl-].[K+] | 95% |
| O=S(=O)([O-])[O-].[Cu+2] | 38% |
| [Ca+2].[Cl-].[Cl-] | 87% |

Each molecule below has a recorded value; state its Relative activity (%).
1. [Cl][Mn][Cl]
2. [Cl][Fe]([Cl])[Cl]
3. O=S(=O)([O-])[O-].[Ni+2]

(A)
1: 92%; 2: 19%; 3: 88%

Each molecule below has a recorded value; state its Relative activity (%).
1. [Cl-].[Cl-].[Mg+2]
2. [Cl-].[Na+]

(A)
71%
102%

====

Test system: YH-15 phytase
Assay: Substrate specificity of phytase
Type: biochemical, Citrobacter braakii YH-15
Conditions: substrate; phytate = 100
Excerpt: Substrate specificity of phytase to various phosphate ester compounds was investigated.
Give measured Relative activity (%) for each item. Keep answers brief.
Numbers only, in %.

Each compound below has a recorded value; state its Relative activity (%).
1. O=[N+]([O-])c1ccc(OP(=O)(O)O)cc1 [p-nitrophenyl phosphate]
2. O=P(O)(O)O[C@H]1O[C@H](CO)[C@@H](O)[C@H](O)[C@H]1O [Glucose-1-phosphate]
3. O=C[C@@H](O)[C@@H](O)[C@H](O)[C@H](O)COP(=O)(O)O [Mannose-6-phosphate]
4. O=C[C@H](O)[C@@H](O)[C@H](O)[C@H](O)COP(=O)(O)O [Glucose-6-phosphate]

(A)
1: 11.27; 2: 0.42; 3: 0.01; 4: 0.33

====

System: YH-15 phytase
Test: Substrate specificity of phytase
Type: biochemical, Citrobacter braakii YH-15
Details: substrate; phytate = 100
Source text: Substrate specificity of phytase to various phosphate ester compounds was investigated.
Give measured Relative activity (%) for each item. Keep answers brief.
# number then unit; no other words

Look over these answered cases.
| MOLECULE | Relative activity (%) |
| --- | --- |
| Nc1ncnc2c1ncn2[C@@H]1O[C@H](COP(=O)(O)OP(=O)(O)O)[C@@H](O)[C@H]1O | 1.04% |
| O=P(O)(O)O[C@H]1[C@H](OP(=O)(O)O)[C@@H](OP(=O)(O)O)[C@H](OP(=O)(O)O)[C@@H](OP(=O)(O)O)[C@H]1OP(=O)(O)O [Phytate] | 100% |
| O=C(CO)[C@@H](O)[C@H](O)[C@H](O)COP(=O)(O)O [Fructose-6-phosphate] | 0.75% |
| O=P([O-])([O-])OP(=O)([O-])[O-].[Na+].[Na+].[Na+].[Na+] [Tetrasodium pyrophosphate] | 5.95% |
| O=P(O)(O)OCC(O)CO (stereo not drawn) [Glycerophosphate] | 0.57% |

The reported YH-15 phytase Relative activity (%) of Nc1ncnc2c1ncn2[C@@H]1O[C@H](COP(=O)(O)OP(=O)(O)OP(=O)(O)O)[C@@H](O)[C@H]1O is 1.86%
